Biological target: T1, Mouse MuSK as it stands on mouse muscle (neuromuscular junctions, C2C12 myotubes) (mouse, UniProt Q61006 22-868)
T1 sequence (looked up): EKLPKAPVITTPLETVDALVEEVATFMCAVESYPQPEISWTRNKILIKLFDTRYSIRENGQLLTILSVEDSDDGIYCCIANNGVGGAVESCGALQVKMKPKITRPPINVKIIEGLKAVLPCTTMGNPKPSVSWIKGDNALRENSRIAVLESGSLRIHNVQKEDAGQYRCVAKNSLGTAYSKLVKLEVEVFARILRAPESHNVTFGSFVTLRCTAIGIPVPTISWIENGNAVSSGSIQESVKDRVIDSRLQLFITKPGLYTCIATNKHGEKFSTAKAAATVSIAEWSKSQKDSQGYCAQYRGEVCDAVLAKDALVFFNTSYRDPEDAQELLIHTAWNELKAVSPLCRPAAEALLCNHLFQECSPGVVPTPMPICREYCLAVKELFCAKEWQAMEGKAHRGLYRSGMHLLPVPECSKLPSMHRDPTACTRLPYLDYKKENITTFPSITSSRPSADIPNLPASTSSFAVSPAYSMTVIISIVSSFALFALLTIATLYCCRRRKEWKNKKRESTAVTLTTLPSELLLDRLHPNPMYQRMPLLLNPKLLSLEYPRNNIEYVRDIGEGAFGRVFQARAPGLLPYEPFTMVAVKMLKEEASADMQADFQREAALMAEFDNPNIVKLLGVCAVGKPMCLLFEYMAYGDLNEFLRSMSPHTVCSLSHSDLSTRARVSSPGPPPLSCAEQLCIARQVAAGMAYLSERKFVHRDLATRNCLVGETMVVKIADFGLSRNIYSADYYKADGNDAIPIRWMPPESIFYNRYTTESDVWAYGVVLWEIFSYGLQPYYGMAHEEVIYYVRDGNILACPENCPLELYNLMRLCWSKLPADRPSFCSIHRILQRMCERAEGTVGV
Test: cell-based or functional assay
Answer each item with its documented AChR clusters larger or equal to 3 µm compared to agrin; antibody 0.11 µg/mL.

AChR clusters larger or equal to 3 µm compared to agrin; antibody 0.11 µg/mL reading for 3F6c (antibody, human IgG1, kappa, L234A L235A, V domains shown) VH: EVQLVESGGGLVKPGGSLRLSCAASGFTFSSYTMDWVRQAPGKGLEWVSSIGSNGDYIYYADSVRGRFTISRDNAKNSLYLQMNSLRAEDTAVYYCARGQLAVAGTHFDYWGQGTLVTVSS VL: DIQMTQSPSSLSASVGDRVTITCRASQKVNKYVNWYQQKPGKAPKLLIYAASTLQSGVPSRFSGSGSGTDFTLTISSLQPEDFATYYCQQSYSPLSTFGQGTKLEIKR : 74 % of agrin

AChR clusters larger or equal to 3 µm compared to agrin; antibody 0.11 µg/mL reading for 4D3 (antibody, human IgG1, kappa, L234A L235A, V domains shown) VH: EVQLVESGGGLVKPGGSLRLSCAASGFTFSSYTMTWVRQAPGKGLEWVSSISSGGHYIYYTDSLKGRFTISRDNAKNSLYLQMNSLRAEDTAVYYCARERLLRLGVGFDFWGQGTLVTVSS VL: DIQMTQSPSSLSASVGDRVTITCRASQSISGYLNWYQQKPGKAPKLLIYAASTLQSGVPSRFSGSGSGTDFTLTISSLQPEDFATYYCQQSYSALYTFGQGTKLEIKR : 63 % of agrin

AChR clusters larger or equal to 3 µm compared to agrin; antibody 0.11 µg/mL reading for 3D10a (antibody, human IgG1, kappa, L234A L235A, V domains shown) VH: EVQLVESGGGLVKPGGSLRLSCAASGFTFSASTMAWVRQAPGKGLEWVSSVSGDSHHIYYADSLKGRFTISRDNAKNSLYLQMNSLRAEDTAVYYCARERLLRLGVGFDSWGQGTLVTVSS VL: DIQMTQSPSSLSASVGDRVTITCRASQRISGFVNWYQQKPGKAPKLLIYAASTLQSGVPSRFSGSGSGTDFTLTISSLQPEDFATYYCQQSYSPLYTFGQGTKLEIKR : 80 % of agrin

AChR clusters larger or equal to 3 µm compared to agrin; antibody 0.11 µg/mL reading for 3D9b (antibody, human IgG1, kappa, L234A L235A, V domains shown) VH: EVQLVESGGGLVKPGGSLRLSCAASGFTFSTYTMHWVRQAPGKGLEWVSSISSRSAYKYYADSVKGRFTISRDNAKNSLYLQMNSLRAEDTAVYYCARDFFQLGPPRFDSWGQGTLVTVSS VL: DIQMTQSPSSLSASVGDRVTITCRASQRISSFLNWYQQKPGKAPKLLIYGASNLQSGVPSRFSGSGSGTDFTLTISSLQPEDFATYYCQQSYSPSYTFGQGTKLEIKR : 65 % of agrin
